Assignment: determine reported Population Membrane Permeable-Phenotype (%) for the given compounds.
Tested on: U2OS
Assay: Multiplex assay against U2OS
Format: toxicity, cell-based
Conditions: human, 12 h, 10 µM, compound concentration 10 uM, replicate 2
Give bare numbers, in %.

[
  {
    "COMPOUND": "CC[C@@]1(O)C(=O)OCc2c1cc1n(c2=O)Cc2cc3ccccc3nc2-1",
    "UNIT_ANNOTATION": "%",
    "VALUE_REPORTED": 13
  },
  {
    "COMPOUND": "CN(c1cc(C(F)(F)F)nc(OCCC(=O)O)n1)c1cccc2c1CCC2",
    "UNIT_ANNOTATION": "%",
    "VALUE_REPORTED": 4
  },
  {
    "COMPOUND": "CC(Cc1ccc(O)c(O)c1)C(C)Cc1ccc(O)c(O)c1 (configuration not stated) [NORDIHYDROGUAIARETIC ACID]",
    "UNIT_ANNOTATION": "%",
    "VALUE_REPORTED": 2
  },
  {
    "COMPOUND": "N#Cc1cccc(C(=O)Nc2cc(-c3ccccc3)nn2-c2ccccc2)c1",
    "UNIT_ANNOTATION": "%",
    "VALUE_REPORTED": 15
  },
  {
    "COMPOUND": "Cc1ccc(NC(=O)Nc2cc(C(F)(F)F)ccc2F)cc1Nc1ccc2c(c1)NC(=O)/C2=C\\c1ccc[nH]1",
    "UNIT_ANNOTATION": "%",
    "VALUE_REPORTED": 5
  }
]

Hi, could you look up Population Membrane Permeable-Phenotype (%) for each item in my list?
1. CC(C)c1cc(Nc2nc(N3CCC[C@H](N)C3)ncc2C(N)=O)cc(C(C)C)n1
2. CN1C(=O)[C@@H](NC(=O)c2cc3ccccc3[nH]2)N=C(c2ccccc2)c2ccccc21 [DEVAZEPIDE]

Out:
1. 100
2. 37

###

Tested on: HEK-293T
Assay: Multiplex assay against HEK293T
Assay type: toxicity, cell-based
Settings: human, 24 h, 10 µM, compound concentration 10 uM, replicate 2
MEASUREMENT_TYPE: Population Mitotic Cells (%)
Numbers only, in %.

The following molecules have reported results that may help.
[
  {
    "MOLECULE": "CC(C)[C@H](CO)Nc1nc(Nc2cccc(Cl)c2)c2ncn(C(C)C)c2n1",
    "UNIT_ANNOTATION": "%",
    "Population Mitotic Cells (%)": 30
  },
  {
    "MOLECULE": "Cc1c(P(=S)(c2ccccc2)c2ccccc2)n2ccccc2[n+]1C/C=C/c1ccccc1.[Br-]",
    "UNIT_ANNOTATION": "%",
    "Population Mitotic Cells (%)": 13
  },
  {
    "MOLECULE": "CN1C(=O)[C@@H](NC(=O)c2cc3ccccc3[nH]2)N=C(c2ccccc2)c2ccccc21 [DEVAZEPIDE]",
    "UNIT_ANNOTATION": "%",
    "Population Mitotic Cells (%)": 58
  }
]

Hi, could you look up Population Mitotic Cells (%) for each item in my list?
1. Cl.NC[C@@H]1O[C@H](C23CC4CC(CC(C4)C2)C3)Cc2c1ccc(O)c2O
2. CCCc1cc(C)[nH]c(=O)c1CNC(=O)c1cc(-c2ccc(N3CCN(C(C)C)CC3)nc2)cc2c1cnn2C(C)C
3. NC(=O)c1ccc2nc(-c3ccc(C4(N)CCC4)cc3)c(-c3ccccc3)n2n1
4. C=CC(=O)Nc1cc(-n2c(=O)ccc3cnc4ccc(-c5ccc(NS(C)(=O)=O)cc5)cc4c32)ccc1C
5. C[C@@H](Oc1cc(-n2cnc3ccc(CN4CCN(C)CC4)cc32)sc1C(N)=O)c1ccccc1C(F)(F)F
6. CCOC(=O)CCNc1cc(N2CCc3ccccc3CC2)nc(-c2ccccn2)n1
7. CC[C@@]1(O)C(=O)OCc2c1cc1n(c2=O)Cc2cc3ccccc3nc2-1

Out:
1: 60; 2: 1; 3: 93; 4: 74; 5: 13; 6: 70; 7: 55

In: Data request, read-out Population Mitotic Cells (%), for N#CCNC(=O)c1ccc(-c2ccnc(Nc3ccc(N4CCOCC4)cc3)n2)cc1
Out: 82

###

Assignment: determine reported Population Tubulin-Different-Phenotype (%) for the given compounds.
Test system: U2OS
Assay: Multiplex assay against U2OS
Type: toxicity, cell-based
Conditions: human, 48 h, 1 µM, compound concentration 1 uM, replicate 1
Answers are plain numbers, in %.

The following compounds have reported results that may help.
[
  {
    "COMPOUND": "N#Cc1cccc(C(=O)Nc2cc(-c3ccccc3)nn2-c2ccccc2)c1",
    "VALUE_REPORTED": 4
  },
  {
    "COMPOUND": "CN(c1cc(C(F)(F)F)nc(OCCC(=O)O)n1)c1cccc2c1CCC2",
    "VALUE_REPORTED": 8
  },
  {
    "COMPOUND": "N#CCNC(=O)c1ccc(-c2ccnc(Nc3ccc(N4CCOCC4)cc3)n2)cc1",
    "VALUE_REPORTED": 19
  },
  {
    "COMPOUND": "C[C@@H](Oc1cc(-n2cnc3ccc(CN4CCN(C)CC4)cc32)sc1C(N)=O)c1ccccc1C(F)(F)F",
    "VALUE_REPORTED": 85
  },
  {
    "COMPOUND": "CC(/C=C1\\SC(=S)N(CCCC(=O)Nc2ccc(C(=O)O)c(O)c2)C1=O)=C\\c1ccccc1",
    "VALUE_REPORTED": 10
  }
]

Hi, could you look up Population Tubulin-Different-Phenotype (%) for each item in my list?
1. CC(C)[C@H](CO)Nc1nc(Nc2cccc(Cl)c2)c2ncn(C(C)C)c2n1
2. CCCCN(CC)c1nc(C)nc2c1c(C)cn2-c1c(C)cc(C)cc1C.Cl
3. Cc1c(P(=S)(c2ccccc2)c2ccccc2)n2ccccc2[n+]1C/C=C/c1ccccc1.[Br-]

Out:
7
7
11

Hi, could you look up Population Tubulin-Different-Phenotype (%) for each item in my list?
1. Oc1cccc(-c2nc(N3CCOCC3)c3oc4ncccc4c3n2)c1
2. C=CC(=O)Nc1cc(-n2c(=O)ccc3cnc4ccc(-c5ccc(NS(C)(=O)=O)cc5)cc4c32)ccc1C
3. CC(C)c1cc(Nc2nc(N3CCC[C@H](N)C3)ncc2C(N)=O)cc(C(C)C)n1
4. CCCc1cc(C)[nH]c(=O)c1CNC(=O)c1cc(-c2ccc(N3CCN(C(C)C)CC3)nc2)cc2c1cnn2C(C)C
5. CCCCCNC(=N)N/N=C/c1c[nH]c2ccc(OC)cc12.O=C(O)/C=C\C(=O)O [TEGASEROD MALEATE]
6. Cc1ccc(S(=O)(=O)NC2c3ccccc3Oc3ccccc32)cc1
7. Cl.NC[C@@H]1O[C@H](C23CC4CC(CC(C4)C2)C3)Cc2c1ccc(O)c2O

Out:
[16, 14, 94, 77, 7, 3, 12]

Hi, could you look up Population Tubulin-Different-Phenotype (%) for each item in my list?
1. CC(Cc1ccc(O)c(O)c1)C(C)Cc1ccc(O)c(O)c1 (configuration not stated) [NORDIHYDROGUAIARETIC ACID]
2. CN1C(=O)[C@@H](NC(=O)c2cc3ccccc3[nH]2)N=C(c2ccccc2)c2ccccc21 [DEVAZEPIDE]

Out:
[14, 8]

###

Tested on: U2OS
Assay: Incucyte cell viability with U2OS; further: filed as whole numbers so only -1 and 0 and 1 occur
Assay type: toxicity, cell-based
Settings: human, 24 h, 10 µM, compound concentration 10 uM, replicate number 1, timepoint 24 hours
Assignment: determine reported Growth Rate for the given compounds.
Answers are plain numbers.

The following compounds have reported results that may help.
[
  {
    "CHEMICAL_STRUCTURE": "CN1CCN(c2ccc(-c3cccc(CN4CCOCC4)c3)cc2NC(=O)c2c[nH]c(=O)cc2C(F)(F)F)CC1",
    "MEASUREMENT_TYPE": "Growth Rate",
    "VALUE_REPORTED": 1
  },
  {
    "CHEMICAL_STRUCTURE": "CC(C)(C)c1ccc(C(=O)Nc2cn3cc(-n4ccnc4)ccc3n2)cc1.Cl.Cl",
    "MEASUREMENT_TYPE": "Growth Rate",
    "VALUE_REPORTED": 1
  },
  {
    "CHEMICAL_STRUCTURE": "COc1ccccc1-c1cc(Nc2cccc(CS(N)(=O)=O)c2)ncn1",
    "MEASUREMENT_TYPE": "Growth Rate",
    "VALUE_REPORTED": 0
  }
]

Hi, could you look up Growth Rate for each item in my list?
1. CCN(CCO)CCCOc1ccc2c(Nc3cc(CC(=O)Nc4cccc(F)c4)[nH]n3)ncnc2c1
2. CC(C)(O)c1cncc(-c2nc3ccc(F)cc3n2C2CC2)c1

Out:
1. 0
2. 1

###

Test system: HEK-293T
Test: Multiplex assay against HEK293T
Type: toxicity, cell-based
Conditions: human, 48 h, 10 µM, compound concentration 10 uM, replicate 2
Assignment: determine reported Population Apoptotic (%) for the given molecules.
Numbers only, in %.

The following molecules have reported results that may help.
[
  {
    "MOLECULE": "CC(C)C[C@H](NC(=O)[C@H](Cc1ccccc1)NC(=O)CNC(=O)CNC(=O)[C@@H](N)Cc1ccc(O)cc1)C(=O)O [ENKEPHALIN]",
    "Population Apoptotic (%)": 18
  },
  {
    "MOLECULE": "CCCCN(CC)c1nc(C)nc2c1c(C)cn2-c1c(C)cc(C)cc1C.Cl",
    "Population Apoptotic (%)": 36
  },
  {
    "MOLECULE": "C=CC(=O)Nc1cc(-n2c(=O)ccc3cnc4ccc(-c5ccc(NS(C)(=O)=O)cc5)cc4c32)ccc1C",
    "Population Apoptotic (%)": 17
  },
  {
    "MOLECULE": "CN1C(=O)[C@@H](NC(=O)c2cc3ccccc3[nH]2)N=C(c2ccccc2)c2ccccc21 [DEVAZEPIDE]",
    "Population Apoptotic (%)": 63
  },
  {
    "MOLECULE": "Cc1c(Nc2ccc(S(=O)(=O)N3CCN(C)CC3)cc2F)nc2ccc(-c3cnn(C4CC4)c3)cn2c1=O",
    "Population Apoptotic (%)": 26
  }
]

Hi, could you look up Population Apoptotic (%) for each item in my list?
1. CC(Cc1ccc(O)c(O)c1)C(C)Cc1ccc(O)c(O)c1 (stereo unspecified) [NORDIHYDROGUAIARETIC ACID]
2. C[C@@H](Oc1cc(-n2cnc3ccc(CN4CCN(C)CC4)cc32)sc1C(N)=O)c1ccccc1C(F)(F)F [GSK-461364]
3. CCCCCNC(=N)N/N=C/c1c[nH]c2ccc(OC)cc12.O=C(O)/C=C\C(=O)O [TEGASEROD MALEATE]
4. Cl.NC[C@@H]1O[C@H](C23CC4CC(CC(C4)C2)C3)Cc2c1ccc(O)c2O
5. CN1CCN(Cc2ccc(-c3cnc4[nH]cc(-c5ccc6[nH]ccc6c5)c4c3)cc2)CC1

Out:
1. 14
2. 79
3. 100
4. 55
5. 96

Hi, could you look up Population Apoptotic (%) for each item in my list?
1. Cc1ccc(S(=O)(=O)NC2c3ccccc3Oc3ccccc32)cc1
2. CCCc1cc(C)[nH]c(=O)c1CNC(=O)c1cc(-c2ccc(N3CCN(C(C)C)CC3)nc2)cc2c1cnn2C(C)C

Out:
1: 12; 2: 98
